Assay: HBSAg ELISA assay: HepG2-Clone42 cells were seeded in into black clear-bottom 96-well plates at a concentration of 6.0×10^4 cells/well. 24 hours post-seeding, the cells were treated with 200 μl/well of media containing five-fold serial dilutions of compounds in DMSO. DMSO alone was used as the no drug control. The final DMSO concentration in all wells was 0.5%. The HBsAg ELISA kit (Alpha Diagnostic International, San Antonio, Tex., USE, Catalog #4110) was used to determine the level (semi-quantitative) of secreted HBV sAg.
Reported values of EC50 for individual entries
The response must be a number in nM with no trailing unit.

COCCCOc1cc2c(cc1Cl)-c1cc(=O)c(C(=O)O)cn1[C@H]1[C@@H]2CCC1(C)C; 0.1
COCCCOc1cc2c(cc1OC)-c1c(F)c(=O)c(C(=O)O)cn1C1[C@@H]2OCC1(C)C (stereo partly drawn); 0.8

Query molecule follows.
Returns the measured EC50 for the input molecule. Input: COCCCOc1cc2c(cc1OC)-c1cc(=O)c(C(=O)O)cn1C1[C@@H]2COC1(C)C (stereo partly drawn) 1

// provenance: ChEMBL document CHEMBL5725762
